# assay-target: MIF-CD74 Binding (biotin-labeled recombinant human MIF, recombinant human MIF receptor CD74 ectodomain) (Homo sapiens, UniProt P14174)
# experiment: MIF-CD74 binding (capture) assay
# condition-notes: Table 5
reported-property: concentration of CD74 % MaxInhib (number after @) (µM)

[[record]]
given_smiles = "N#Cc1nc2ccccc2n1Cc1ccccc1"
unit_of_measure = "µM"
observed_result = 0.078

[[record]]
given_smiles = "c1ccc(Cn2c(Cc3ccccn3)nc3ccccc32)cc1"
unit_of_measure = "µM"
observed_result = 1.87

[[record]]
given_smiles = "CN(C)C(=O)c1nc2ccccc2n1Cc1ccccc1"
unit_of_measure = "µM"
observed_result = 1.87

[[record]]
given_smiles = "NC(=O)c1nc2ccccc2n1Cc1ccccc1"
unit_of_measure = "µM"
observed_result = 1.87

[[record]]
given_smiles = "COCCc1nc2ccccc2n1Cc1ccccc1"
unit_of_measure = "µM"
observed_result = 1.87

[[record]]
given_smiles = "CNC(=O)c1nc2ccccc2n1Cc1ccccc1"
unit_of_measure = "µM"
observed_result = 1.87

[[record]]
given_smiles = "c1ccc(Cn2c(-c3cscn3)nc3ccccc32)cc1"
unit_of_measure = "µM"
observed_result = 0.039


* * *

# assay-target: MIF-CD74 Binding (biotin-labeled recombinant human MIF, recombinant human MIF receptor CD74 ectodomain) (Homo sapiens, UniProt P14174)
# Sequence (P14174 2-115 limits assumed): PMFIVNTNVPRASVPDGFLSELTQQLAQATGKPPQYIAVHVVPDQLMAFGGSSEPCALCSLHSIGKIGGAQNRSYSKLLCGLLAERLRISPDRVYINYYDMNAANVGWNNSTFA
# experiment: MIF-CD74 binding (capture) assay
# condition-notes: Table 14; number before @
reported-property: CD74 % MaxInhib (%)

[[record]]
given_smiles = "Cc1ccc2c(c1)N(C(=O)c1cc3ccccc3o1)CC2"
observed_result = 33

[[record]]
given_smiles = "O=C(c1cc2ccccc2o1)N1CCc2cc(F)ccc21"
observed_result = 19

[[record]]
given_smiles = "O=C(c1cc2cc(F)ccc2o1)N1CCc2ccccc21"
observed_result = 30

[[record]]
given_smiles = "COc1ccc2cc(C(=O)N3CCc4ccccc43)oc2c1"
observed_result = 12

[[record]]
given_smiles = "Cc1ccc2c(c1)CCN2C(=O)c1cc2ccccc2o1"
observed_result = 33

[[record]]
given_smiles = "COc1ccc2oc(C(=O)N3CCc4ccccc43)cc2c1"
observed_result = 30

[[record]]
given_smiles = "Cc1ccc2cc(C(=O)N3CCc4ccccc43)oc2c1"
observed_result = 19


* * *

# assay-target: Human MIF (MIF tautomerase activity) (Homo sapiens, UniProt P14174)
# Construct: made in house
# Sequence (P14174 2-115 limits assumed): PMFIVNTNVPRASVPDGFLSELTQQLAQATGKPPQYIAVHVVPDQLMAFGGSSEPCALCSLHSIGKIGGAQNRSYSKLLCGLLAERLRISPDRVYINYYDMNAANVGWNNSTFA
# experiment: HPP tautomerase assay
# Type: biochemical
# condition-notes: Table 2; read-out: HPP IC50
reported-property: IC50 (µM)

[[record]]
compound = "O=c1c2ccc(F)cc2sn1-c1ccc(Cl)cc1 [Compound 25]"
observed_result = 4.2


* * *

# assay-target: Human MIF (MIF tautomerase activity) (Homo sapiens, UniProt P14174)
# Construct: made in house
# experiment: HPP tautomerase assay
# Format: biochemical
# condition-notes: Table 7, data cell c6; number before @
API: label(entry) gives class 1 if the entry's HPP % MaxInhib is strictly smaller than 30%; on equality or larger values it gives class 0.

[[record]]
given_smiles = "Cc1ccc2nc(-c3ccc(Cl)cc3)oc2c1"
assay_target = "Human MIF (MIF tautomerase activity) (Homo sapiens, UniProt P14174)"
class = "class 1"

[[record]]
given_smiles = "Clc1ccc2nc(-c3ccccc3)oc2c1"
assay_target = "Human MIF (MIF tautomerase activity) (Homo sapiens, UniProt P14174)"
class = "class 1"

[[record]]
given_smiles = "Cc1ccc2oc(-c3ccc(Cl)cc3)nc2c1"
assay_target = "Human MIF (MIF tautomerase activity) (Homo sapiens, UniProt P14174)"
class = "class 1"

[[record]]
given_smiles = "Clc1ccc(-c2nc3cc(Cl)ccc3o2)cc1"
assay_target = "Human MIF (MIF tautomerase activity) (Homo sapiens, UniProt P14174)"
class = "class 0"

[[record]]
given_smiles = "Clc1ccc(-c2nc3ccc(Cl)cc3o2)cc1"
assay_target = "Human MIF (MIF tautomerase activity) (Homo sapiens, UniProt P14174)"
class = "class 0"


* * *

# assay-target: MIF-CD74 Binding (biotin-labeled recombinant human MIF, recombinant human MIF receptor CD74 ectodomain) (Homo sapiens, UniProt P14174)
# experiment: MIF-CD74 binding (capture) assay
# condition-notes: Table 13
// concentration of CD74 % MaxInhib (number after @) lookup, one value per entry
reported-property: concentration of CD74 % MaxInhib (number after @) (µM)

[[record]]
given_smiles = "O=C(c1cc2ccccc2o1)c1cc2cc(F)ccc2o1"
unit_of_measure = "µM"
observed_result = 0.12

[[record]]
given_smiles = "O=C(c1cc2ccccc2o1)c1cc2ccccc2o1"
unit_of_measure = "µM"
observed_result = 0.058

[[record]]
given_smiles = "O=C(c1cc2ccccc2o1)c1cc2cc(O)ccc2o1"
unit_of_measure = "µM"
observed_result = 0.24

[[record]]
given_smiles = "Cc1ccc2cc(C(=O)c3cc4ccccc4o3)oc2c1"
unit_of_measure = "µM"
observed_result = 0.24


* * *

# assay-target: Human MIF (MIF tautomerase activity) (Homo sapiens)
# Construct: made in house
# experiment: HPP tautomerase assay
# Assay type: biochemical
# condition-notes: Table 5
reported-property: HPP Max Inhib

[[record]]
compound = "NC(=O)c1nc2ccccc2n1Cc1ccccc1 [MIF-062]"
reported_property = "HPP Max Inhib"
observed_result = "16%"

[[record]]
compound = "COCCc1nc2ccccc2n1Cc1ccccc1 [MIF-066]"
reported_property = "HPP Max Inhib"
observed_result = "18%"

[[record]]
compound = "CN(C)C(=O)c1nc2ccccc2n1Cc1ccccc1 [MIF-063]"
reported_property = "HPP Max Inhib"
observed_result = "0%"

[[record]]
compound = "CNC(=O)c1nc2ccccc2n1Cc1ccccc1 [MIF-065]"
reported_property = "HPP Max Inhib"
observed_result = "13%"


* * *

# assay-target: Human MIF (MIF tautomerase activity) (Homo sapiens)
# Construct: made in house
# Sequence (P14174 2-115 limits assumed): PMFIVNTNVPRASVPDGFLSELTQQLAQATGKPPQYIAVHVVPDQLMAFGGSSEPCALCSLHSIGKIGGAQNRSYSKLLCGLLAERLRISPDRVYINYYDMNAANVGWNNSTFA
# experiment: HPP tautomerase assay
# Format: biochemical
# condition-notes: Table 6, data cell c7; read-out: HPP IC50
pIC50: −log10 of the molar value.
// pIC50 lookup, one value per entry
reported-property: pIC50

[[record]]
given_smiles = "N#Cc1ccc(-n2sc3cc(F)ccc3c2=O)cc1"
observed_result = 5.19

[[record]]
given_smiles = "COc1ccccc1-n1sc2ccc(Cl)cc2c1=O"
observed_result = 5.18

[[record]]
given_smiles = "O=Cc1cccc(-n2sc3cc(F)ccc3c2=O)c1"
observed_result = 5.22

[[record]]
given_smiles = "N#Cc1ccc2sn(-c3ccc(Cl)cc3)c(=O)c2c1"
observed_result = 4.72

[[record]]
given_smiles = "O=c1c2cc(Br)ccc2sn1-c1ccc(Cl)cc1"
observed_result = 5.10

[[record]]
given_smiles = "O=c1c2cc(F)ccc2sn1-c1cccc(O)c1"
observed_result = 5.23

[[record]]
given_smiles = "COCc1cccc(-n2sc3cc(F)ccc3c2=O)c1"
observed_result = 5.62

[[record]]
given_smiles = "O=c1c2cc([N+](=O)[O-])ccc2sn1-c1ccc(Cl)cc1"
observed_result = 5.21

[[record]]
given_smiles = "COc1cccc(-n2sc3cc(F)ccc3c2=O)c1"
observed_result = 4.60

[[record]]
given_smiles = "O=c1c2ccc(F)c(F)c2sn1-c1ccc(Cl)cc1"
observed_result = 5.25

[[record]]
given_smiles = "N#Cc1ccc2c(=O)n(-c3ccc(Cl)cc3)sc2c1"
observed_result = 5.51

[[record]]
given_smiles = "O=c1c2cc(F)ccc2sn1-c1ccc(Cl)cc1"
observed_result = 5.25

[[record]]
given_smiles = "O=c1c2ccc(Br)cc2sn1-c1ccc(Cl)cc1"
observed_result = 4.96

[[record]]
given_smiles = "COc1ccc(-n2sc3ccc(F)cc3c2=O)cc1"
observed_result = 5.19

[[record]]
given_smiles = "COc1cccc(-n2sc3ccc(F)cc3c2=O)c1"
observed_result = 5.56

[[record]]
given_smiles = "O=c1c2cc(F)c(F)cc2sn1-c1ccc(Cl)cc1"
observed_result = 5.31

[[record]]
given_smiles = "CC(=O)OCc1cccc(-n2sc3cc(F)ccc3c2=O)c1"
observed_result = 5.64

[[record]]
given_smiles = "O=c1c2ccc(F)cc2sn1-c1ccc(Cl)cc1"
observed_result = 5.38

[[record]]
given_smiles = "O=c1c2ccc(F)cc2sn1-c1cccc(Cl)c1"
observed_result = 5.30

